Assay: Cytotoxicity assay (CellTiter-Glo cell viability, 72 hours)
Assay type: cell-based
Conditions: African green monkey; Vero cells, 72 hours, growth inhibition; read-out: Cytotoxicity IC50
*1 amine or outer side, *2 acyl side, *3 side chain or, on linkers, in order; H or OH if unused. Where a SMILES comes first, the peptide text is derived from it. Bridges are numbered along the chain shown (N, C = ends). [ ]: non-standard residue; d: D form. The star is where a group is joined. Phe(3,5-F2) = N[C@@H](Cc1cc(F)cc(F)c1)C(=O)O; Morpholine(3S-CO) = O=C(O)[C@@H]1COCCN1; Pro(4R-Me) = C[C@H]1CN[C@H](C(=O)O)C1; Hyp = O=C(O)[C@@H]1C[C@@H](O)CN1; NH(4-Me-phenyl) = Cc1ccc(N*)cc1; aThr = C[C@H](O)[C@H](N)C(=O)O; Pip = O=C(O)[C@@H]1CCCCN1; X4 = c1cc2c(cc1N*)CCC2; X8 = c1cc2c(cc1N*)CCO2; CO = O=C([*:1])[*:2]
value-type: IC50 at 72 h

compound | reported
Cc1ccc(NC(=O)N[C@@H](Cc2ccccc2)C(=O)N[C@H]2COC(=O)[C@@H]3C[C@@H](C)CN3C(=O)[C@H](C)NC(=O)[C@@H]3CCCCN3C(=O)[C@@H]3CCCN3C2=O)cc1C | 74 µM
Cc1ccc(NC(=O)N[C@@H](Cc2cc(F)cc(F)c2)C(=O)N[C@H]2COC(=O)[C@@H]3C[C@@H](C)CN3C(=O)[C@H](C)NC(=O)[C@@H]3CCCCN3C(=O)[C@@H]3CCCN3C2=O)cc1C | 31.1 µM
Cc1ccc(NC(=O)N[C@@H](Cc2cc(F)cc(F)c2)C(=O)N[C@H]2COC(=O)[C@@H]3C[C@@H](C)CN3C(=O)[C@H](C)NC(=O)C3CCCCN3C(=O)[C@@H]3C[C@@H](O)CN3C2=O)cc1 (stereo partly drawn) | > 100 µM
C[C@@H]1C[C@H]2C(=O)O[C@@H](C)[C@H](NC(=O)[C@H](Cc3cc(F)cc(F)c3)NC(=O)Nc3ccc4c(c3)CCO4)C(=O)N3CCC[C@H]3C(=O)N3CCCC[C@H]3C(=O)N[C@@H](C)C(=O)N2C1 [Compound 305] ({X8-CO}-[Phe(3,5-F2)][aThr]P[Pip]A[Pro(4R-Me)]; ester 2-C) | 39 µM
Cc1ccc(NC(=O)N[C@@H](Cc2cc(F)cc(F)c2)C(=O)N[C@H]2COC(=O)[C@@H]3C[C@@H](C)CN3C(=O)[C@H](C)NC(=O)[C@@H]3COCCN3C(=O)[C@@H]3C[C@@H](O)CN3C2=O)cc1 [Compound 317] ({NH(4-Me-phenyl)-CO}-[Phe(3,5-F2)]S[Hyp][Morpholine(3S-CO)]A[Pro(4R-Me)]; ester 2-C) | > 100 µM
C[C@@H]1C[C@H]2C(=O)O[C@@H](C)[C@H](NC(=O)[C@H](Cc3cc(F)cc(F)c3)NC(=O)Nc3ccc4c(c3)CCC4)C(=O)N3CCC[C@H]3C(=O)N3CCCC[C@H]3C(=O)N[C@@H](C)C(=O)N2C1 [Compound 302] ({X4-CO}-[Phe(3,5-F2)][aThr]P[Pip]A[Pro(4R-Me)]; ester 2-C) | 13.2 µM

Reference for the values: patent US10457707B2
